target: Sentrin-specific protease 8 (Homo sapiens); type: functional;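 also: luminescence read-out of SENP8 inhibition, dose-response confirmation following an ultra-high-throughput screen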
Sequence (Q96LD8 whole entry): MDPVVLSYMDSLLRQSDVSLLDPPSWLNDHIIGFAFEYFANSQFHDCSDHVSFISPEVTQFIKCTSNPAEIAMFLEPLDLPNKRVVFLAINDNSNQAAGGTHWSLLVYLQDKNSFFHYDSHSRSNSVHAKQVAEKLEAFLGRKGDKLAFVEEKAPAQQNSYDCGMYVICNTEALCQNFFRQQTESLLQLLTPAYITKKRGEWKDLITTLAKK
Calls of active or inactive are those of the source.
Could you please pick one outcome from this set? active, inactive

**Query** I would be grateful if you could indicate the recorded call for "O=C(O)c1ccc(NC2=C/C(=N/S(=O)(=O)c3ccccc3)c3ccccc3C2=O)cc1" .
**Result** active

**Query** I would be grateful if you could indicate the recorded call for "COc1ccc(OC)c(Nc2cc3ccccc3c(O)n2)c1" .
**Result** active

**Query** I would be grateful if you could indicate the recorded call for "Cc1ccc(-n2cc3ccc([N+](=O)[O-])cc3n2)cc1" .
**Result** active

**Query** I would be grateful if you could indicate the recorded call for "Oc1nc(SCc2ccc(Cl)cc2)nc2ccsc12" .
**Result** active

Could you now look at the following compound, please?
**Query** I would be grateful if you could indicate the recorded call for "Oc1ccc(Cl)cc1N=Nc1ccccc1" .
**Result** inactive

Where these numbers come from: ChEMBL document CHEMBL1201862
